# testedSystem: T1, monomeric human CTLA-4 (human, UniProt P16410 36-161, limits assumed)
# T1 construct: Soluble monomeric analyte in SPR; also called huCTLA-4
# T1 sequence: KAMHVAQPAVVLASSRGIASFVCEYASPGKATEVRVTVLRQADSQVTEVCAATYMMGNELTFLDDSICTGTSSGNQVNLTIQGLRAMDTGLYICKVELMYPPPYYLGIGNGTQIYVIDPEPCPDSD
# protocolDetails: SPR, captured Fab, pH 6.0
t1/2: recorded values
Give just the number in s; leave the unit off.

ipi.92 Fab (Fab, V domains shown, Tested as monovalent Fab) VH: QVQLVESGGGVVQPGRSLRLSCAASGFTFSHYTMHWVRQAPGKGLEWVTFISYDGHNKYYADSVKGRFTISRDNSKNTLYLQMNSLRAEDTAIYYCARHGWLGPFDYWGQGTLVTVSS VL: EIVLTQSPGTLSLSPGERATLSCRASQEVGDSELAWYQQKPGQAPRLLIYGAFSRATGIPDRFSGSGSGTDFTLTISRLEPEDFAVYYCQQYGSSPWTFGQGTKVEIKR :: 22

Query :: Dear colleague, I am looking for the recorded t1/2 of the following binder: ipi.93 Fab (Fab, V domains shown, Tested as monovalent Fab) VH: QVQLVESGGGVVQPGRSLRLSCAASGFTFSSYTMHWVRQAPGKGLEWVTFISYDGNNKYYADSVKGRFTISRDNSKNTLYLQMNSLRAEDTAIYYCARTGWLGPFDYWGQGTLVTVSS VL: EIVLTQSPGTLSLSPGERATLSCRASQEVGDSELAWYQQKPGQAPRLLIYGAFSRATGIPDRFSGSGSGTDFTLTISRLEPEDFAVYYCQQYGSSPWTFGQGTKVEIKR
Result :: 32
